// provenance: PubChem BioAssay (NCI)

# Test system: MDA-MB-435 melanoma
# measurement-description: NCI-60 one-dose screen, 48 h (100 = growth as untreated, 0 = no growth, -100 = all killed)
# test-settings: 10 µM unless noted
# Experimental: Growth inhibition of the MDA-MB-435 human Melanoma tumor cell line is measured as a screen for anti-cancer activity. Cells are grown in 96 well plates and exposed to the test compound for 48 hours. Compounds are tested at a single concentration, which is 10^-5 M for most compounds. The reported endpoint is percent growth (GI% or GIPRCNT), where numbers from 0 - 100% represent growth inhibition, and numbers from -100% - 0 represent cell death. […]
The panel holds about 83,000 compounds, 20% with a hit somewhere; the sample as a whole holds those more often.
readout-type: growth (%)

>>> print(df.to_string())
                                   molecule        tested_target  readout_type  unit_of_measurement  assay_value
0  O=c1oc2c(C(F)(F)F)cccc2cc1-c1csc(Nc2ccc(OCCF)cc2)n1  MDA-MB-435 melanoma        growth                    %        -22.9
1  N#Cc1nnn(-c2ccc(S(N)(=O)=O)cc2)c1NCC(=O)c1ccccc1  MDA-MB-435 melanoma        growth                    %         91.8
2     FC(F)(F)Oc1ccc2nc3nc4ccc[nH]c4cc3c2c1  MDA-MB-435 melanoma        growth                    %         89.2
3  CCCCCCN(CCCCCC)CCC(O)c1ccc2ccccc2c1 (stereo not given)  MDA-MB-435 melanoma        growth                    %         68.3
4  O=C(NCCN1CCOCC1)Nc1ccc(-c2cc3c(Nc4ccc(Oc5cccc(C(F)(F)F)c5)c(Cl)c4)ncnc3s2)cc1  MDA-MB-435 melanoma        growth                    %         1.05
